B1: SH3 and PX domain-containing protein 2B, residues 155 to 209; numbered along this chain, A1X283 (parent)
chain: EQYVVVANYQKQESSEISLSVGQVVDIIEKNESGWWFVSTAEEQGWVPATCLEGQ

Variants of: B1
Experimental details: abundance fitness (aPCA) (normalised: wild type 0, dead -1); higher = more abundant; growth selection in yeast, the domain comes from the species named
Stated conditions: Homo sapiens
Measurement name: abundance fitness
Just the number, please, no unit after it.

# annotated cases, reported abundance fitness shown
| Mutation code | Observed measurement |
| --- | --- |
| Y3R | -0.127 |
| E53A | -0.014 |
| I17F | -0.597 |

abundance fitness for `I27L` ?
-0.099

Try `L52T` next.
-1.22

Try `V47Y` next.
-0.45

Try `L19Q` next.
-0.865

Try `C51E` next.
-0.944

Try `N8P` next.
-0.069

Try `W46M` next.
-0.039

Try `A7Y` next.
0.025
